Target: T1, PUF4 RNA-binding domain (Saccharomyces cerevisiae, UniProt P25339 537-888)
T1 sequence: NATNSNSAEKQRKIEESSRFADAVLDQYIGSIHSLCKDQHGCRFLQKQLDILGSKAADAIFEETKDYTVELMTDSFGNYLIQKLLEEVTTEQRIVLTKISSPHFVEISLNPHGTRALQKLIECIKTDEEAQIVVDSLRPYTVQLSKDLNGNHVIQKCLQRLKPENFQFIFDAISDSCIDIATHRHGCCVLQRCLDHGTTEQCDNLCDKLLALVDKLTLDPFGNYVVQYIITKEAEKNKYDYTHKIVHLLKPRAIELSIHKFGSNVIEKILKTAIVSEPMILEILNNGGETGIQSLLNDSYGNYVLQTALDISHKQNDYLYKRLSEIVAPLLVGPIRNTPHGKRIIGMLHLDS
Experiment: Mg; RNA-MaP; 20 mM Na-HEPES pH 7.4, 30 mM KOAc, 0.75 mM MgCl2, 0.1% Tween-20, 5% glycerol, 0.1 mg/mL BSA, 2 mM DTT; 25 C; 0.0125-409.6 nM protein
Conditions: tags: N-His6-TEV cleaved; C-SNAP kept, Cy3B-labelled; label: tethered on chip by stalled RNA polymerase
Kd less than 20 nM is Satisfied; Kd greater than or equal to 20 nM is Not satisfied.

For orientation, consider the following solved cases.
- binder: "UCUCUUUGUAUACACUUCUCUU (ssRNA) [Ic_S1_P5E.1_K5.1_C5.1_H5.1_A5.1_[T6A]_[A7C]_F5.1_[T8A]_[T9C]_[A10T]_T5.1]"
  answerLabel: "Not satisfied"
- binder: "Id_ii_S4_P4E.2_K4.1_C4.2_[C-2T]_H4.1_A4.1_F4.1_T4.2_[G10A]_[T11C] (ssRNA) RNA: UUUGACAACUGAUCGUUCUUUCUUUUGUAUAUUAACUUCUUUCUCGAUCAGUUGUCUUU"
  answerLabel: "Satisfied"
- binder: "Id_ii_S4_P4E.4_K4.3_C4.2_[C-2A]_H4.3_A4.1_F4.1_T4.2_[G10C]_[T11C] (ssRNA) RNA: UUUGACAACUGAUCGUUCUUUCUAUACACUAUUACCUUCUUUCUCGAUCAGUUGUCUUU"
  answerLabel: "Satisfied"
- binder: "Ib_S2_P4E.1_K4.1_C4.1_H4.1_[A4T]_A4.1_F4.1_[T8C]_T4.1 (ssRNA) RNA: UUUGAUUAAUAUGAUAUCGUUCUUUCUUGUUUAUCAUUCUUUCUCGAUAUCAUAUUAAUCUUU"
  answerLabel: "Not satisfied"
- binder: "Id_ii_S4_P5E.3_K5.2_C5.2_H5.2_A5.1_F5.1_T5.2_[T11C]_[A12T] (ssRNA) RNA: UUUGACAACUGAUCGUUCUUUCUCUUAUAUUAUUACUUUCUUUCUCGAUCAGUUGUCUUU"
  answerLabel: "Not satisfied"

Inquiry: Lab log: compare recorded Kd with 20 nM; is it strictly lower for UCUCUUUGUAAGCCAUCUCUU (ssRNA) [Ic_S1_P4E.1_K4.1_C4.1_H4.1_A4.1_[T5A]_[A6G]_[T7C]_F4.1_[T8C]_T4.1] ?
Reply text: Not satisfied

Inquiry: Lab log: compare recorded Kd with 20 nM; is it strictly lower for UCUCUUUGACACUAUAUAUCUCUU (ssRNA) [Id_i_S1_P3E.4_K3.3_C3.2_[C-2T]_[T-1G]_H3.3_A3.1_F3.1_T3.2] ?
Reply text: Not satisfied

Inquiry: Lab log: compare recorded Kd with 20 nM; is it strictly lower for Ie_S2_P4E.1_K4.1_C4.1_H4.1_A4.1_[+6CCT]_F4.1_T4.1 (ssRNA) RNA: UUUGAUUAAUAUGAUAUCGUUCUUUCUUGUAUACCUUUAUUCUUUCUCGAUAUCAUAUUAAUCUUU ?
Reply text: Satisfied

Inquiry: Lab log: compare recorded Kd with 20 nM; is it strictly lower for Ic_S2_P4E.1_K4.1_C4.1_H4.1_A4.1_[T5C]_[A6G]_[T7C]_F4.1_[T8A]_[A9T]_T4.1 (ssRNA) RNA: UUUGAUUAAUAUGAUAUCGUUCUUUCUUGUACGCAUUUCUUUCUCGAUAUCAUAUUAAUCUUU ?
Reply text: Not satisfied

Inquiry: Lab log: compare recorded Kd with 20 nM; is it strictly lower for Ie_S4_P4E.1_K4.1_C4.1_H4.1_A4.1_[+6CCT]_F4.1_T4.1 (ssRNA) RNA: UUUGACAACUGAUCGUUCUUUCUUGUAUACCUUUAUUCUUUCUCGAUCAGUUGUCUUU ?
Reply text: Satisfied

Inquiry: Lab log: compare recorded Kd with 20 nM; is it strictly lower for Id_ii_S2_P4E.2_K4.1_C4.2_[C-2A]_[T-1C]_H4.1_A4.1_F4.1_T4.2_[G10A] (ssRNA) RNA: UUUGAUUAAUAUGAUAUCGUUCUUUCUACUGUAUAUUAAUUUCUUUCUCGAUAUCAUAUUAAUCUUU ?
Reply text: Satisfied

Inquiry: Lab log: compare recorded Kd with 20 nM; is it strictly lower for UCUCUUUGUAUACGACUCUCUU (ssRNA) [Ic_S1_P5E.1_K5.1_C5.1_H5.1_A5.1_[T6A]_[A7C]_F5.1_[T8G]_[T9A]_[A10C]_T5.1] ?
Reply text: Not satisfied
